Reference for the values: patent US8546414B2

Biological target: NaV1.3 (Homo sapiens)
Construct: expressed in transfected cells; host or cells: HEK293
Sequence (Q9NY46 whole entry): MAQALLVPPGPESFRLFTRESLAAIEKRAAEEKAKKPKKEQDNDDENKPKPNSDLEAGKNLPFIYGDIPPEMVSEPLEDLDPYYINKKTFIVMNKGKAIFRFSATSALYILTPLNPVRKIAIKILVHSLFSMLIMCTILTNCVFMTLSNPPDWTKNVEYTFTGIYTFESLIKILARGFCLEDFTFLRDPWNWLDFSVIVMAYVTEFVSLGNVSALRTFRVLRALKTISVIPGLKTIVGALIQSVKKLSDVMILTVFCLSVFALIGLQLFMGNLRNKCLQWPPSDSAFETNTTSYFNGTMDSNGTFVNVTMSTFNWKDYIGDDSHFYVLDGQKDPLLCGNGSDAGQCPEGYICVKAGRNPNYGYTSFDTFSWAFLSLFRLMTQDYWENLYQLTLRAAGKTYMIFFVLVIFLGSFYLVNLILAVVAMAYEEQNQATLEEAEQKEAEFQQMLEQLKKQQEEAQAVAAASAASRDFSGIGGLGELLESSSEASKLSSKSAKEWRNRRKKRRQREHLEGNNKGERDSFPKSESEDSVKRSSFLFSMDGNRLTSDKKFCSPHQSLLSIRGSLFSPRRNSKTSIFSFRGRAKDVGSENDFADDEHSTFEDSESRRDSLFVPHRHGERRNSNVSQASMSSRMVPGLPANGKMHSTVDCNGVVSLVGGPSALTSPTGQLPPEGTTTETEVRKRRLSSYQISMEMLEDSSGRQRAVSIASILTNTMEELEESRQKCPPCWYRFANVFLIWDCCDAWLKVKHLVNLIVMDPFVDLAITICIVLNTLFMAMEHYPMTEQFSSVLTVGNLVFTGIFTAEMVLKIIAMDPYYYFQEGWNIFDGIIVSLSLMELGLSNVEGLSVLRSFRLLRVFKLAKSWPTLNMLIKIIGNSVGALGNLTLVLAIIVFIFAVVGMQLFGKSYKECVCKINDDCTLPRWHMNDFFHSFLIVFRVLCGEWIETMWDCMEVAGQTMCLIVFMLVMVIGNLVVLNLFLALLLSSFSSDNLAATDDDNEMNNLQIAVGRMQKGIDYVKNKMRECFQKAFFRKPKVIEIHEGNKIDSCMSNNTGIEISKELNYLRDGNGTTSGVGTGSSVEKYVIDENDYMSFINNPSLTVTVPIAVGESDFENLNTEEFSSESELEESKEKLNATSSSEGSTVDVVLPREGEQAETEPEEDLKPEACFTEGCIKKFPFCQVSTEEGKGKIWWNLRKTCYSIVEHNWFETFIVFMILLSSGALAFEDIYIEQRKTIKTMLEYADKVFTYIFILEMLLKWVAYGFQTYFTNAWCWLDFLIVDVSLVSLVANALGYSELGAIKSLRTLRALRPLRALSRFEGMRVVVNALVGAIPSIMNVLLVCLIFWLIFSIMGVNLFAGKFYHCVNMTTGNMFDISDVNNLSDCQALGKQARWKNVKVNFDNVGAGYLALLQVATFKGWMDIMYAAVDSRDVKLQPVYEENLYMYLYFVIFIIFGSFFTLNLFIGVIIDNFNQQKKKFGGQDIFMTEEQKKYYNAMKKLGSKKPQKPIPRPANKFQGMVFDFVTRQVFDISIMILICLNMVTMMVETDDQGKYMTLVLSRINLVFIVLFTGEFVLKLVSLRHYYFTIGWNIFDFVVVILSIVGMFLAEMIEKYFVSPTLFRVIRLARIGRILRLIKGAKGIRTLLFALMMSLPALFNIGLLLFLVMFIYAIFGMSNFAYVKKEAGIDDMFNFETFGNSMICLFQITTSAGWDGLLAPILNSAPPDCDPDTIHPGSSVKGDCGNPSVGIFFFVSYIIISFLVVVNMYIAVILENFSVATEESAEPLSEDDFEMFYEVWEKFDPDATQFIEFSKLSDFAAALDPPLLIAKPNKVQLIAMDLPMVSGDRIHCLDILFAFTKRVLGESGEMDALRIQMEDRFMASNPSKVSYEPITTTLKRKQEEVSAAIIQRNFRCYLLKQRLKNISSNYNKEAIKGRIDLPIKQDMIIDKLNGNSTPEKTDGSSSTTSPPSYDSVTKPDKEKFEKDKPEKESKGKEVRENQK
Assay: VIPR optical membrane potential assay with electrical stimulation, NaV1.3
Format: cell-based
Conditions: Table 9, NaV 1.3 receptors
pIC50: −log10 of the molar value.
property: pIC50

CCCCNc1ncc(C(=O)N2CCC(C)CC2)c(-c2ccc(C#N)cc2)n1 [compound 344] : < 5.00
COc1cccc(N(C(=O)c2cnc(N3CCCCC3)nc2-c2ccccc2Cl)C2CCCCC2)c1 [compound 115] : < 5.00
CCC(C)Nc1ncc(C(=O)N(C)CC)c(-c2cccc(C)c2)n1 (stereo not shown) [compound 273] : < 5.00
CC(C)N(Cc1ccccc1)C(=O)c1cnc(N2CCCC2)nc1-c1ccc(C#N)cc1 [compound 211] : < 5.00
COc1cccc(N(C(=O)c2cnc(N3CCOCC3)nc2-c2ccccc2F)C2CCC2)c1 [compound 190] : 5.00 to 5.70
O=C(NC1CCCC1)c1cnc(N2CCOCC2)nc1-c1ccccc1F [compound 19] : < 5.00
COCCCNc1ncc(C(=O)NCC2CC2)c(-c2ccc(C#N)cc2)n1 [compound 231] : < 5.00
CCC(C)NC(=O)c1cnc(N(C)CCc2ccc(OC)c(OC)c2)nc1-c1ccc(C#N)cc1 (stereo not shown) [compound 331] : < 5.00
CC1CCCCC1NC(=O)c1cnc(N2CCCC(C(N)=O)C2)nc1-c1ccc(C#N)cc1 (stereo not shown) [compound 286] : < 5.00
Cc1nc(N2CCOCC2)nc(-c2ccccc2F)c1C(=O)N(Cc1ccc(C(C)(C)C)cc1)C(C)C [compound 31] : 5.00 to 5.70
O=C(c1cnc(N2CCOCC2)nc1-c1ccccc1F)N(Cc1cccc2ccccc12)C1CC1 [compound 40] : 5.00 to 5.70
CCCCNC(=O)c1cnc(NCCCOC)nc1-c1cccc(C)c1 [compound 332] : < 5.00
COc1cccc(N(C(=O)c2cnc(N3CCCCC3)nc2-c2ccccc2Cl)C2CCCC2)c1 [compound 8] : 5.00 to 5.70
CC(C)N(C(=O)c1cnc(N2CCOCC2)nc1-c1ccccc1F)c1cccc(C#N)c1 [compound 202] : < 5.00
CCN(CCOC)c1ncc(C(=O)N(Cc2ccccc2)C(C)C)c(-c2ccccc2F)n1 [compound 83] : 5.00 to 5.70
Cc1nc(N2CCOCC2)nc(-c2ccccc2F)c1C(=O)N(Cc1ccccc1)C1CC1 [compound 145] : 5.00 to 5.70
CCN(Cc1ccccc1)C(=O)c1cnc(N2CCCC(C(N)=O)C2)nc1-c1ccc(C#N)cc1 (stereo not shown) [compound 259] : < 5.00
Cc1cccc(-c2nc(NCc3ccc4c(c3)OCO4)ncc2C(=O)N2CCOCC2)c1 [compound 264] : < 5.00
CC(C)N(C(=O)c1cnc(N2CCCCC2)nc1-c1ccccc1F)c1ccccc1 [compound 93] : 5.00 to 5.70
CC1CCN(c2ncc(C(=O)N(C)C3CCCCC3)c(-c3ccc(C#N)cc3)n2)CC1 [compound 241] : < 5.00
Cc1nc(N2CCOCC2)nc(-c2ccccc2F)c1C(=O)N(Cc1ccccc1)C(C)C [compound 13] : < 5.00
CC(C)N(Cc1ccccc1)C(=O)c1cnc(Nc2nc3ccccc3[nH]2)nc1-c1ccccc1F [compound 106] : < 5.00
CC(C)CN(CC(C)C)C(=O)c1cnc(N2CCCC2)nc1-c1ccc(C#N)cc1 [compound 341] : < 5.00
CC(C)N(C(=O)c1cnc(N2CCSCC2)nc1-c1ccccc1F)c1ccccc1 [compound 201] : 5.00 to 5.70
COc1ccc(CCNc2ncc(C(=O)N3CCC(C)CC3)c(-c3ccc(C#N)cc3)n2)cc1 [compound 316] : < 5.00
CCN(Cc1ccccc1)C(=O)c1cnc(N2CCCC2)nc1-c1ccc(C#N)cc1 [compound 340] : < 5.00
CCN(CCOC)c1ncc(C(=O)N(Cc2cccc(OC)c2)C(C)C)c(-c2ccccc2F)n1 [compound 103] : > 5.70
O=C(c1cnc(N2CCOCC2)nc1-c1ccccc1F)N(Cc1cccnc1)C1CC1 [compound 138] : < 5.00

----------
Each item that follows carries a reported IC50.
Molecular target: NaV1.8 (Homo sapiens, UniProt Q9Y5Y9)
Sequence (Q9Y5Y9 whole entry): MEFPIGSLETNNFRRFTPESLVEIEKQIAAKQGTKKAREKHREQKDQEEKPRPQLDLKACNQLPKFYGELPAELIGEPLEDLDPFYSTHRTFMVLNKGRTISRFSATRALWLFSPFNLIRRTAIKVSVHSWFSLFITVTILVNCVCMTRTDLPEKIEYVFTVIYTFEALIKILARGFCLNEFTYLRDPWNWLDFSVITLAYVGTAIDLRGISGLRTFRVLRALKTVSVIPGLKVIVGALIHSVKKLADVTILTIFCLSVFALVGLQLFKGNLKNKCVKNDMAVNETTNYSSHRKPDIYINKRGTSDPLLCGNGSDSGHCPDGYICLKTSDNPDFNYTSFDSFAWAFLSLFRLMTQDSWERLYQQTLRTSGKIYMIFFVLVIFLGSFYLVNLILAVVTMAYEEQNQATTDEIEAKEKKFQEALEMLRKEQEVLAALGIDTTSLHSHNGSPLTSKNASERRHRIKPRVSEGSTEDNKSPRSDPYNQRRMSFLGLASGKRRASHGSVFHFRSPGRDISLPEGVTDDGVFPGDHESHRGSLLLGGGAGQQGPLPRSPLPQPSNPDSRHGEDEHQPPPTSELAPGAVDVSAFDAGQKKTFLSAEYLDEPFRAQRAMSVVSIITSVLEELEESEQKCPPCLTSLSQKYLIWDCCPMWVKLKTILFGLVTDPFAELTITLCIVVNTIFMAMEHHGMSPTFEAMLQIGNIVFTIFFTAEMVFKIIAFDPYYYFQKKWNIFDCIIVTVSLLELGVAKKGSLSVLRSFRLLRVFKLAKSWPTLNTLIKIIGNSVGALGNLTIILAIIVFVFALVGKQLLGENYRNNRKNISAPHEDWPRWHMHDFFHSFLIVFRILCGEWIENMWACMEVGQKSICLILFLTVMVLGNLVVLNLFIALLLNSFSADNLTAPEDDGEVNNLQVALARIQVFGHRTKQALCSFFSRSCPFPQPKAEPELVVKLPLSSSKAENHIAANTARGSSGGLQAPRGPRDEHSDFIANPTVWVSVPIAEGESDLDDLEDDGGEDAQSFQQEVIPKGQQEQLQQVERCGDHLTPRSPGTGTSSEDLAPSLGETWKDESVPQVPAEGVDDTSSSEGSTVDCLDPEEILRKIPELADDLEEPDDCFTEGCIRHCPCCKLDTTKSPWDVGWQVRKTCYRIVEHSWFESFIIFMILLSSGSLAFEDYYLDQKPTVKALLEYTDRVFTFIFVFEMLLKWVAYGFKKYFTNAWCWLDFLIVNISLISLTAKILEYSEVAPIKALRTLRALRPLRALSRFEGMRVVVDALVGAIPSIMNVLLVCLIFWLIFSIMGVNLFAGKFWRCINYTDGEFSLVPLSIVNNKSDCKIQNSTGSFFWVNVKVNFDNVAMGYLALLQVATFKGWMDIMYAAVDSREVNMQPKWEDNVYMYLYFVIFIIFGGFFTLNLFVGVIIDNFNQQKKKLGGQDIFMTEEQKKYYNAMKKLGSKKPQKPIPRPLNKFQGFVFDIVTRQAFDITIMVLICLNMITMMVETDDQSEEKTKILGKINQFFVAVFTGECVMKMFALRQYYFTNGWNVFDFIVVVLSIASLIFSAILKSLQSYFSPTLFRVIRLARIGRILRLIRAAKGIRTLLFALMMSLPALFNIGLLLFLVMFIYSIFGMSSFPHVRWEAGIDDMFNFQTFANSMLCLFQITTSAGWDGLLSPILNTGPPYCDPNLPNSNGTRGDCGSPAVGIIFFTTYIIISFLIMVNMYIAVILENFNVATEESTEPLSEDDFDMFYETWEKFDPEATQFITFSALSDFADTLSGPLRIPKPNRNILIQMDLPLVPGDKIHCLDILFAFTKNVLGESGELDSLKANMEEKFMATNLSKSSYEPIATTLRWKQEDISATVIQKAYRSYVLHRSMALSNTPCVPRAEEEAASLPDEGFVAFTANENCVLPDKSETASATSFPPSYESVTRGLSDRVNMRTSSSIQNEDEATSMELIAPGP
Assay: VIPR optical membrane potential assay, NaV1.8 (other subtypes in an analogous mode)
Assay type: cell-based
Conditions: Table 9, NaV 1.8 receptors
property: IC50

CC(C)N(Cc1ccc2c(c1)OCO2)C(=O)c1cnc(N2CCC3CCCCC3C2)nc1-c1ccccc1F (stereo not drawn) [compound 120] : > 10 µM
CC(C)N(C(=O)c1cnc(N2CCOCC2)nc1-c1ccccc1F)c1cccc(C(C)(C)C)c1 [compound 165] : > 10 µM
CC1Cc2ccccc2N1C(=O)c1cnc(N2CCOCC2)nc1-c1ccccc1F (stereo not drawn) [compound 150] : > 10 µM
CC(C)N(C(=O)c1cnc(N2CCOCC2)nc1-c1ccccc1F)c1ccccc1 [compound 88] : > 10 µM
O=C(NC1Cc2ccccc2C1)c1cnc(N2CCOCC2)nc1-c1ccccc1F [compound 33] : > 10 µM
O=C(c1cnc(N2CCOCC2)nc1-c1ccccc1F)N(Cc1cnc2ccccc2c1)C1CC1 [compound 99] : > 10 µM
O=C(c1cnc(N2CCSCC2)nc1-c1ccccc1F)N(Cc1ccc(C(F)(F)F)cc1)C1CC1 [compound 85] : 2 to 10 µM
COc1cccc(CN(C(=O)c2cnc(N3CCc4ccccc4C3)nc2-c2ccccc2F)C(C)C)c1 [compound 22] : > 10 µM
O=C(c1cnc(N2CCSCC2)nc1-c1ccccc1F)N(Cc1ccc2c(c1)CCO2)C1CC1 [compound 30] : > 10 µM
COc1cccc(N(C(=O)c2cnc(N3CCCCC3)nc2-c2ccccc2Cl)C(C)C)c1 [compound 175] : > 10 µM
CC(C)N(Cc1ccccc1)C(=O)c1cnc(N2CCOCC2)nc1-c1ccccc1Cl [compound 194] : 2 to 10 µM
COc1cccc(N(C(=O)c2cnc(N3CCCCC3)nc2-c2ccccc2F)C2CCOCC2)c1 [compound 35] : > 10 µM
O=C(c1cnc(N2CCOCC2)nc1-c1ccccc1F)N1Cc2ccccc2C1 [compound 187] : > 10 µM
CC(C)N(Cc1ccccc1)C(=O)c1cnc(Nc2ccc(Cl)cc2)nc1-c1ccccc1F [compound 207] : > 10 µM
O=C(NC1CCC1)c1cnc(N2CCOCC2)nc1-c1ccccc1F [compound 174] : > 10 µM
COc1cccc(OC)c1-c1nc(N2CCOCC2)ncc1C(=O)N(Cc1ccccc1)C(C)C [compound 89] : > 10 µM
O=C(NCCCc1ccccc1)c1cnc(N2CCOCC2)nc1-c1ccc(Oc2ccccc2)cc1 [compound 46] : > 10 µM
COc1cccc(N(C(=O)c2cnc(N3CCOCC3)nc2-c2ccccc2F)C2CC2)c1 [compound 183] : > 10 µM
CC(C)N(Cc1ccccc1)C(=O)c1cnc(NC2CC3CCC2C3)nc1-c1ccccc1F (stereo not drawn) [compound 29] : 2 to 10 µM
CC(C)N(Cc1ccc(C(C)(C)C)cc1)C(=O)c1cnc(N2CCSCC2)nc1-c1ccccc1F [compound 59] : 2 to 10 µM
O=C(c1cnc(N2CCOCC2)nc1-c1ccccc1F)N(Cc1cccc(F)c1)C1CC1 [compound 110] : > 10 µM

----------
pIC50 values by entry
Target: NaV1.3 (Homo sapiens)
Construct: expressed in transfected cells; host or cells: HEK293
Test: VIPR optical membrane potential assay with electrical stimulation, NaV1.3
Assay type: cell-based
Conditions: Table 9, NaV 1.3 receptors
pIC50: −log10 of the molar value.
property: pIC50

COc1cccc(N(C(=O)c2cnc(N3CCSCC3)nc2-c2ccccc2F)C(C)C)c1 : 5.00 to 5.70
CC1CC(C)CN(C(=O)c2cnc(N3CCOCC3)nc2-c2ccc(C#N)cc2)C1 (centres unmarked) : < 5.00
O=C(c1cnc(N2CCSCC2)nc1-c1ccccc1F)N(Cc1ccc(F)cc1)C1CC1 : 5.00 to 5.70
COc1cccc(N(C(=O)c2cnc(N3CCN(C)CC3)nc2-c2ccccc2F)C(C)C)c1 : < 5.00
O=C(c1cnc(N2CCOCC2)nc1-c1ccccc1F)N(Cc1ccc(F)cc1)C1CC1 : 5.00 to 5.70

----------
Biological target: CaV2.2 (Homo sapiens, UniProt Q00975)
Assay: VIPR optical membrane potential assay with electrical stimulation, CaV2.2
Details: Table 9, CaV 2.2 receptors
pIC50: −log10 of the molar value.
property: pIC50

O=C(c1cnc(N2CCOCC2)nc1-c1ccccc1F)N(Cc1cccc(F)c1)C1CC1 : 5.00 to 5.70
CCN(Cc1cccc(C)c1)C(=O)c1cnc(NCCNC(C)=O)nc1-c1ccccc1F : < 5.00
O=C(c1cnc(N2CCCCC2)nc1-c1ccccc1Cl)N(Cc1ccc2c(c1)CCO2)C1CC1 : 5.00 to 5.70

----------
Target: NaV1.3 (Homo sapiens)
Construct: expressed in transfected cells; host or cells: HEK293
Experiment: VIPR optical membrane potential assay with electrical stimulation, NaV1.3
Format: cell-based
Conditions: Table 9, NaV 1.3 receptors
property: IC50

N=C(N)NCCCNC(=O)c1cnc(N2CCC3CCCCC3C2)nc1-c1ccccc1F (stereo not shown) [compound 102] : > 10 µM
O=C(NCc1ccccc1)c1cnc(NCCc2cccc(F)c2)nc1-c1ccccc1F [compound 224] : > 10 µM
CC(C)N(C(=O)c1cnc(N2CCCCC2)nc1-c1ccccc1F)c1ccc2c(c1)OCCO2 [compound 171] : 2 to 10 µM
CCN(Cc1cccc(C)c1)C(=O)c1cnc(NCCCOC)nc1-c1ccccc1F [compound 268] : > 10 µM
CCN(C)c1ncc(C(=O)N2CCC(C)CC2)c(-c2cccc(C)c2)n1 [compound 343] : > 10 µM
CC1CC(C)CN(C(=O)c2cnc(NCc3cccc(Cl)c3)nc2-c2ccc(C#N)cc2)C1 (stereo not shown) [compound 238] : > 10 µM
O=C(c1cnc(N2CCCCC2)nc1-c1ccccc1F)N(Cc1ccccc1)C1CCCC1 [compound 136] : 2 to 10 µM
COc1ccc(N(C(=O)c2cnc(N3CCC4CCCCC4C3)nc2-c2ccccc2F)C(C)C)cc1 (stereo not shown) [compound 12] : > 10 µM
Cc1nc(N2CCOCC2)nc(-c2ccccc2F)c1C(=O)N(c1ccccc1)C(C)C [compound 25] : > 10 µM
O=C(c1cnc(N2CCOCC2)nc1-c1ccc(-c2ccccc2)cc1)N1CCCCC1 [compound 229] : > 10 µM
CC(C)N(Cc1ccccc1)C(=O)c1cnc(N2CCC(O)C2)nc1-c1ccccc1F (stereo not shown) [compound 45] : > 10 µM
CC(C)CN(C)C(=O)c1cnc(N2CCCC2)nc1-c1ccccc1F [compound 270] : > 10 µM
O=C(c1cnc(N2CCOCC2)nc1-c1ccccc1F)N1CC=C(c2ccccc2)CC1 [compound 91] : > 10 µM
